# test description: HEK293 cellular growth inhibition assay (CellTiter-Glo)
# Format: cell-based
# run parameters: human, HEK293 cells, 7 days of incubation
measured property: CC50 at 7 days

Guide cases for CC50 at 7 days, answers given:
- compound: "Cc1c(CN2CCC3(CC2)CN(c2ncnc4ncc(CC(F)(F)F)nc24)C3)ccc2c1cc(C#N)n2CC(C)N1CCN(S(C)(=O)=O)CC1 (stereo not drawn) [Compound 42]"
  CC50 at 7 days: "≤ 2 µM"
- compound: "Cc1c(CN2CCC3(CC2)CN(c2ncnc4ccc(CC(F)(F)F)cc24)C3)ccc2[nH]c(C#N)cc12 [Compound 68]"
  CC50 at 7 days: "2 to 5 µM"

The record that follows has no CC50 at 7 days shown yet.
## Task Could you share which CC50 at 7 days value was measured for Cc1c(CN2CCC3(CC2)CN(c2ncnc4ccc(CC(F)(F)F)cc24)C3)ccc2c1cc(C#N)n2C[C@@H](C)N1CCN(S(C)(=O)=O)[C@@H](C)C1 [Compound 27] ?
## Result 5 to 10 µM
